# credit: PubChem BioAssay

Below, each entry is listed alongside its reported z-score.
test: HepG2 liver cancer cell viability effects, profiling panel, resazurin fluorescence, 24 h, PK04 Diversity Set (AID 1172); settings: higher = more signal; also: test concentration not given here
recorded-endpoint: z-score

molecule | recorded-endpoint | experimental-value
COC(=O)c1nc2oc1CC[C@@H](CO)NC(=O)N(C)Cc1cnnn1C[C@H](Cc1ccccc1)NC2=O | z-score | 0.841
COc1ccc(CN(C2=CC[C@@]3(C(N)=O)C(=O)C(Cl)=C(Cl)C(=O)[C@@]3(C#N)C2)S(=O)(=O)c2ccc(Br)cc2)cc1 | z-score | -0.275
Cc1ccc(S[C@]2(C(=O)NCCCN(C)C)CC(=O)N(C3CCCCC3)[C@@H]2c2ccc(CO)cc2)cc1 | z-score | -0.0347
CCOC(=O)C[C@H]1[C@H](OC(=O)c2cc3ccccc3oc2=O)[C@@H](NC(=O)Cc2ccc(OC)cc2)c2cc(OCCCO)ccc2N1C(=O)c1ccc2ccccc2n1 | z-score | -0.604
C[C@H]1NC(=O)[C@@]23C(=O)N[C@@H](Cc4ccccc4)C2[C@H](C)[C@@]2(C)O[C@H]2C3/C=C/C/C=C\CNC(=O)[C@H](Cc2ccccc2)NC1=O (stereo partly drawn) | z-score | -0.466
[N-]=[N+]=Nc1ccccc1C[C@]1(C(N)=O)N=C(c2ccc(OCCCO)cc2)O[C@H]1c1ccccc1N=[N+]=[N-] | z-score | -0.0314
NCCCCCCNC(=O)[C@@H]1C[C@@H]2C(=O)N[C@@H](CCCCN)C(=O)N2[C@@H]1c1cccc(OCCO)c1 | z-score | 1.1
CC(C)OC(=O)C=C1C[C@@H](c2ccc(C(F)(F)F)cc2)O[C@@H](c2ccc(C(F)(F)F)cc2)O1 | z-score | 0.54
COCCOC(=O)N1C(=O)[C@@]2(c3cc(C#CC4=CCCCC4)ccc31)[C@H](c1ccc(OCCO)cc1)N1[C@H](c3ccccc3)[C@H](c3ccccc3)OC(=O)[C@H]1[C@@H]2C(=O)N1CCN(c2ncccn2)CC1 | z-score | 0.205
CC1CC/C=C\[C@H]2OC34C=CCN(c5ccc(Cl)cc5)C(=O)[C@H]3N(CCCCCO)C(=O)[C@]4(C)C2C(=O)O1 (stereo partly drawn) | z-score | -0.773
Cc1ccccc1C(O)C1C=CC2C(=O)N(C)C(=O)C2N1N(c1ccccc1)c1ccccc1 (stereo not drawn) | z-score | -0.417
CCOC(=O)[C@H]1[C@@H]2C(=O)N3CCC[C@H]3[C@H](O[Si](C(C)C)(C(C)C)C(C)C)[C@H]2C=C2CCN(S(=O)(=O)c3ccc(C)cc3)C[C@H]21 | z-score | -1.01
COCCOC(=O)N1C(=O)[C@@]2(c3ccccc31)[C@H](C(=O)N1CCN(c3ncccn3)CC1)[C@H]1C(=O)O[C@H](c3ccccc3)[C@H](c3ccccc3)N1[C@@H]2c1ccc(O)cc1 | z-score | -0.0067

###

experiment: anti-His antibody binders, primary screen, artefact control for SMM control protein annotation, biochemical, small-molecule microarray, 635 nm fluorescence (AID 1128); details: anti-His Alexa647 antibody binding, higher = more signal;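 also: score merges feature fluorescence with signal-to-noise for each printed compound spot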
Below, each entry is listed alongside its reported composite z-score.

molecule | composite z-score
O=C1O[C@H](c2ccccc2)[C@H](c2ccccc2)N2[C@H]1[C@@H](C(=O)N1CCN(c3ncccn3)CC1)[C@]1(C(=O)Nc3ccc(C#CC4(O)CCCCCC4)cc31)[C@H]2c1ccc(OCCO)cc1 | 1.14
CC(C)C(CO)N1C(=O)[C@@H]2C3C(=O)OCCC/C=C\[C@H]3OC23C=CCN(C(C)(C)C)C(=O)[C@@H]13 (stereo not given in full) | -0.539
[N-]=[N+]=Nc1ccccc1C[C@]1(C(N)=O)N=C(c2ccc(OCCCO)cc2)O[C@H]1c1ccccc1N=[N+]=[N-] | 1.91
O=C1O[C@@H](c2ccccc2)[C@@H](c2ccccc2)N2[C@@H](c3ccc(OCCO)cc3)[C@]3(C(=O)Nc4ccccc43)[C@@H](C(=O)O)[C@H]12 | 2.37
CCCCCCc1nc(C2CC2)cc2c1[Si](C(C)C)(C(C)C)O[C@H]2c1ccccc1 | -0.523
CCOC(=O)C1=C[C@@H](c2ccccc2)N(S(=O)(=O)c2ccc(C)cc2)[C@H]1c1ccccc1Cl | 0.857
COCCOC(=O)N1C(=O)[C@@]2(c3cc(C#Cc4ccc(OC)cc4)ccc31)[C@H](C(=O)Nc1nc3ccccc3s1)[C@H]1C(=O)O[C@H](c3ccccc3)[C@H](c3ccccc3)N1[C@@H]2c1ccc(OCCO)cc1 | 1.14
COCCCNC(=O)[C@@]1(Cc2ccccc2N=[N+]=[N-])N=C(c2ccc(OCCCO)cc2)O[C@H]1c1ccccc1 | 2.18
Cc1ccc(S[C@]2(C(=O)NCC(F)(F)F)CC(=O)N(C3CCCCC3)[C@@H]2c2ccc(CO)cc2I)cc1 | 0.21
CCOC(=O)c1ccc(NC(=O)O[C@H]2[C@H](OC(=O)Nc3ccc4c(c3)OCO4)[C@H](OC(=O)Nc3ccc4c(c3)OCO4)[C@@H](OC)O[C@@H]2CO)cc1 | 1.73
COc1cc(OC)c(C(O)C2C=CC3C(=O)N(C)C(=O)C3N2NC(=O)OC(C)(C)C)cc1Br (stereo not given) | 0.476
O=C(NCCCCCNC(=O)/C(Cc1ccccc1)=N/O)OCc1ccccc1 | 0.0971
COC(=O)c1c2oc(c1C(=O)OC)C(=O)N(Cc1ccccc1)Cc1cn(nn1)C[C@H](Cc1ccccc1)NC(=O)N[C@H](CO)CC2 | 0.402
Cn1cccc1C(O)C1C=CC2C(=O)NC(=O)C2N1Nc1ccc(Cl)cc1Cl (stereo not given) | 1.43
[N-]=[N+]=NCc1ccccc1C[C@]1(C(N)=O)N=C(c2ccc(OCCCO)cc2)O[C@H]1c1ccccc1 | 0.409
